The origin of these recorded values is patent US20220288219A1.

Target: T1, cell surface CD22 on Ramos (CD22+) cells (human, UniProt P20273 20-847)
T1 construct: whole, on cells; also called CD22 on WSU-DLCL2, MHH-PREB-1 and Raji cells
T1 sequence (looked up): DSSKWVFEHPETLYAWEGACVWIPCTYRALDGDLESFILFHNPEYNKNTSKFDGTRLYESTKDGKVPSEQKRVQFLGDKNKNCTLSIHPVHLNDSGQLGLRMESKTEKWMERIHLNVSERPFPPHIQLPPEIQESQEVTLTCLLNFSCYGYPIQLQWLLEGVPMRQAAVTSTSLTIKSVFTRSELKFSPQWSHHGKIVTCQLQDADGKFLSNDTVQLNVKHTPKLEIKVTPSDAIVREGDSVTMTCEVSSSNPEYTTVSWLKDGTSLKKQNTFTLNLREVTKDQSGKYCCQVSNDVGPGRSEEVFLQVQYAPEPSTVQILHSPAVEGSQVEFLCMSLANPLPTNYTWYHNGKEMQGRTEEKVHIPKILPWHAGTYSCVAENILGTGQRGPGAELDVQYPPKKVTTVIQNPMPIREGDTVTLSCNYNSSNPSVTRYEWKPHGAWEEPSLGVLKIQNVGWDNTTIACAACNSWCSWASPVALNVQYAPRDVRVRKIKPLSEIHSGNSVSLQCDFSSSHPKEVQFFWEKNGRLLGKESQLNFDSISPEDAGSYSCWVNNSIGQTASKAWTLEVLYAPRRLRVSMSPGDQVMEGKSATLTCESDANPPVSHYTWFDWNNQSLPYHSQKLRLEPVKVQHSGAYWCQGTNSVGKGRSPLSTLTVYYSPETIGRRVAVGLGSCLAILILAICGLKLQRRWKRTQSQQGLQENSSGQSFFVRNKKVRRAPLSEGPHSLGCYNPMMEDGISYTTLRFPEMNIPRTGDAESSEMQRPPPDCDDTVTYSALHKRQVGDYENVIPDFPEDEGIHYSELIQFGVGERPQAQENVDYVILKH
Experiment: flow cytometry, antibody titration on Ramos (CD22+) cells, AF488 anti-human IgG
Provide the recorded IC50 for the entries that follow.
Give bare numbers, in nM.

Binder	IC50 / nM
MYT1331 (antibody, V domains shown, pinatuzumab VH F107H; tie by order) VH: EVQLVESGGGLVQPGGSLRLSCAASGYEFSRSWMNWVRQAPGKGLEWVGRIYPGDGDTNYSGKFKGRFTISADTSKNTAYLQMNSLRAEDTAVYYCARDGSSWDWYHDVWGQGTLVTVSS VL: DIQMTQSPSSLSASVGDRVTITCRSSQSIVHSVGNTFLEWYQQKPGKAPKLLIYKVSNRFSGVPSRFSGSGSGTDFTLTISSLQPEDFATYYCFQGSQFPYTFGQGTKVEIK	0.395
inotuzumab (antibody, V domains shown, IgG from Expi293, captured by anti-human Fc; entries headed heavy/light chain hold only the variable domains; also called MYT0518; INOTUZUMAB starting ABPC) VH: EVQLVQSGAEVKKPGASVKVSCKASGYRFTNYWIHWVRQAPGQGLEWIGGINPGNNYATYRRKFQGRVTMTADTSTSTVYMELSSLRSEDTAVYYCTREGYGNYGAWFAYWGQGTLVTVSS VL: DVQVTQSPSSLSASVGDRVTITCRSSQSLANSYGNTFLSWYLHKPGKAPQLLIYGISNRFSGVPDRFSGSGSGTDFTLTISSLQPEDFATYYCLQGTHQPYTFGQGTKVEIK	0.075
MYT4405 (antibody, V domains shown, inotuzumab VH N31H+N103H; tie by order) VH: EVQLVQSGAEVKKPGASVKVSCKASGYRFTHYWIHWVRQAPGQGLEWIGGINPGNNYATYRRKFQGRVTMTADTSTSTVYMELSSLRSEDTAVYYCTREGYGHYGAWFAYWGQGTLVTVSS VL: DVQVTQSPSSLSASVGDRVTITCRSSQSLANSYGNTFLSWYLHKPGKAPQLLIYGISNRFSGVPDRFSGSGSGTDFTLTISSLQPEDFATYYCLQGTHQPYTFGQGTKVEIK	0.24

Field: next binder
Fill in reported IC50 for this entry: pinatuzumab (antibody, V domains shown, IgG from Expi293; also called MYT1293; PINATUZUMAB starting ABPC) VH: EVQLVESGGGLVQPGGSLRLSCAASGYEFSRSWMNWVRQAPGKGLEWVGRIYPGDGDTNYSGKFKGRFTISADTSKNTAYLQMNSLRAEDTAVYYCARDGSSWDWYFDVWGQGTLVTVSS VL: DIQMTQSPSSLSASVGDRVTITCRSSQSIVHSVGNTFLEWYQQKPGKAPKLLIYKVSNRFSGVPSRFSGSGSGTDFTLTISSLQPEDFATYYCFQGSQFPYTFGQGTKVEIK 0.362
